Kindly supply the reported IC50 values for the records listed here.
target: human DGAT2 (hDGAT2) (Homo sapiens (Human), UniProt Q96PD7); experiment: DGAT2 Enzymatic Activity Assay; format: biochemical; conditions: hDGAT2 Sf-9 membrane prep; 13C18-triolein product by LC/MS/MS; 25 μM diolein, 5 μM 13C oleoyl-CoA
Sequence (Q96PD7 whole entry): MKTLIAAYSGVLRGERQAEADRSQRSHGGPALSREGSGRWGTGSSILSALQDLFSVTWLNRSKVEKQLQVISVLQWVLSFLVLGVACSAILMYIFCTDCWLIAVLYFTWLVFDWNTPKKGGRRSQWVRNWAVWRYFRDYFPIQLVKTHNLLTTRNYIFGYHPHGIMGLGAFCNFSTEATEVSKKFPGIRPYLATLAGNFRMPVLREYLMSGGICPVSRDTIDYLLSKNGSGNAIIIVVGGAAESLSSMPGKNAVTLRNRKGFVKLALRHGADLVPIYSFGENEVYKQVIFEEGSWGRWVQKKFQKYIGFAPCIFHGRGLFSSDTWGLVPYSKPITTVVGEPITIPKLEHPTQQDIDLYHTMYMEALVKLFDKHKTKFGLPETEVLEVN
Give bare numbers, in nM.

COMPOUND	MEASUREMENT KIND	RESULT
[2H]C([2H])([2H])C([2H])(n1nc(-c2cc(OC(F)F)ccc2F)c2c1C[C@H](C(=O)NC1(C)CCS(=O)(=O)CC1)CC2)C([2H])([2H])[2H] [Example 46]	IC50	37.9
CC(C)Oc1cc(-c2nn(C(C)C)c3c2CC[C@@H](C(=O)NC2(C)CCS(=O)(=O)CC2)C3)c(F)cn1 [Example 38]	IC50	74.3

Shift focus to the following entry.
# compound CC1(NC(=O)[C@@H]2CCc3c(-c4cncc(OC(F)F)c4)nn(-c4ccc(F)cn4)c3C2)CS(=O)(=O)C1 [Example 12] ; its IC50 = 65.8
